Assay: MicroPET distribution of [^18F]-GA after PG polysaccharides intervention
Format: in vivo, mice
Details: male, Kunming, mouse, lungs, po, mice, PG polysaccharides orally for 7 days, Time(s) 1020; read-out: %ID/g of [^18F]-GA in the lungs, LA
endpoint: tissue uptake at 168 h (%ID/g)
Output spec: scalar in %ID/g, unitless text.

Exam item: Supply recorded tissue uptake at 168 h for CC1(C)[C@@H](O)CC[C@]2(C)[C@H]3C(=O)C=C4[C@@H]5C[C@@](C)(C(=O)NCCCC[18F])CC[C@]5(C)CC[C@@]4(C)[C@]3(C)CC[C@@H]12 [[^18F]-GA, [^18F]-Glycyrrhetinic acid] here.
Marked response: 2.35
